# TESTED_ON: human IL-12 receptor (IL-12Rβ1 and IL-12Rβ2) on HEK-Blue IL-12 cells (human, UniProt P42701 24-662; Q99665 24-862)
# Sequence (Q99665 24-862, chain 2 of 2, other chains not shown): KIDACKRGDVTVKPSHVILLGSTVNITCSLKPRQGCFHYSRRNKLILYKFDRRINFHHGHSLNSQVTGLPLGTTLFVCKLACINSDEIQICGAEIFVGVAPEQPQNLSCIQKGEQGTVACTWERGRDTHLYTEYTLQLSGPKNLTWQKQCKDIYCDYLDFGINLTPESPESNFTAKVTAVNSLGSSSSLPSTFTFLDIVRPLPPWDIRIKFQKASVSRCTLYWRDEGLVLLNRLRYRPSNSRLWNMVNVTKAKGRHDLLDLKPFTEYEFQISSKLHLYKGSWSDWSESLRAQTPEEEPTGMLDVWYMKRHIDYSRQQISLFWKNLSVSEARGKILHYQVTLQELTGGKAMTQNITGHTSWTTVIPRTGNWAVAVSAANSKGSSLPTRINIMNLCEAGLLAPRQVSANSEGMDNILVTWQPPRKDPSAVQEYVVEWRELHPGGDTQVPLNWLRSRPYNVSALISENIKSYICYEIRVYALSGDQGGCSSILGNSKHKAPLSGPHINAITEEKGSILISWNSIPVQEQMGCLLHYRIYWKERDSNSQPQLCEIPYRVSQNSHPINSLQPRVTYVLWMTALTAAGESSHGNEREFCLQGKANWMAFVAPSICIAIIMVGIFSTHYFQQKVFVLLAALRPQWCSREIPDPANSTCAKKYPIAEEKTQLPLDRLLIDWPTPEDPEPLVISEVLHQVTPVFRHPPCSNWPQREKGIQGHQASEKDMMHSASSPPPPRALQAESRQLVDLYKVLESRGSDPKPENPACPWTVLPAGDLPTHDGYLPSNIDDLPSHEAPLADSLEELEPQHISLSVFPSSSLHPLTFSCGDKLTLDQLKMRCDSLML
# ASSAY_TEXT: cell-based or functional assay
For each record, write down the corresponding EC50.

Some binders with known EC50 results, for comparison:
- BINDER: "DGL504 (bispecific antibody, V domains shown) V domain 1: EVQLVESGGGLVQAGGSLRLSCAASGLTFRNYAMAWFRQAPGKEREFVAGITWGGGLTHYVDSVKGRFTISRDNGKNTVYLQMNSLKSEDTAVYYCAGKTQGSTWYHLTPDGYDYWGQGTQVTVEP V domain 2: QVQLVESGGGLVQAGGSLRLSCAASGRTFSSYAMGWFRQAPGKEREFVSAISWSGLSTYYVESVQGRFTISRDNAKNTVYLQMNSLKPEDTAVYYCAASRIYTNYVARSYEYDDWGQGTQVTVEP"
  RESULT: "> 100 nM"
- BINDER: "DGL515 (bispecific antibody, V domains shown, 97B1 x 85B2) V domain 1: QVQLVESGGGLAQAGGSLRLSCAASGRTFSNDDMAWFRQAPGKEREFVAHIDRNAASTNYADSVKGRFTISRDNAKNTVYLQMTRLKPEDTAVYYCAADPDHFGTTWYQQYTYWGPGTQVTVEP V domain 2: QVQLVESGGGLVQAGGSLRVSCAASGRIPSLNTMAWYRQAPGKQREFVAFITNGGTTNYVDSVEGRFSISRDNTKNAVDLQMNSLKPEDTGVYYCNVQISQYPYNYWGQGTQVTVEP"
  RESULT: "> 100 nM"
- BINDER: "DGL545 (bispecific antibody, V domains shown) V domain 1: QVQLVESGGGAVQAGGSLRLSCAASGLTSRHYVMAWFRQAPGIEREFVASIWWGGSTYYADSVKDRFTISRDNAENTVYLQMNSLKPEDTAVYRCAVGTKIGTMGPRYDYWGQGTQVTVEP V domain 2: QVQLVESGGGLVQAGGSLRLSCAASGRTFSSYAMGWFRQAPGKEREFVSAISWSGLSTYYVESVQGRFTISRDNAKNTVYLQMNSLKPEDTAVYYCAASRIYTNYVARSYEYDDWGQGTQVTVEP"
  RESULT: "> 100 nM"
- BINDER: "DGL605 (bispecific antibody, V domains shown, 238B1 x 93B2) V domain 1: QLQLVESGGGLVQPGGSLRLSCAASGFTFSSYGMSWVRQAPGKGLEWVSYISAGGGTTTYVDFVKGRFTISRDNAKNMLYLQMNSLKPEDTAVYYCVHAADGSRGQGTQVTVEP V domain 2: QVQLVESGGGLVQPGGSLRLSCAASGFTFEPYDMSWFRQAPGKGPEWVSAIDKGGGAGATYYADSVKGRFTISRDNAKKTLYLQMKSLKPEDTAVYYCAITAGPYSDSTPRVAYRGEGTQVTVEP"
  RESULT: "4.6e-10 M (implied)"
- BINDER: "DGL572 (bispecific antibody, V domains shown, 233B1 x 93B2) V domain 1: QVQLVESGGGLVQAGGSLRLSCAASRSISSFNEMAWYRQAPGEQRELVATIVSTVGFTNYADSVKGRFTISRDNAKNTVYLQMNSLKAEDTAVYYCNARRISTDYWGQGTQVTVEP V domain 2: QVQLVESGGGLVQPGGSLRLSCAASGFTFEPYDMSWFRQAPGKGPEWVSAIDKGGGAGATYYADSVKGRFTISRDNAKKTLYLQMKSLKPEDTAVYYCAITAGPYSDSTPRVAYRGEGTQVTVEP"
  RESULT: "1.2e-08 M (implied)"

Could I get EC50 for every one of these entries?
1. DGL607 (bispecific antibody, V domains shown, 86B1 x 278B2) V domain 1: QVQLVESGGGLMQAGGSLRLSCALSRGIFSAYAMGWFRQVQGKEREFVSGISRSGSTTDYVDTAKGRFTISRDNARDTVYLQMNSLKPEDTAVYYCAAVTGTFPSSTYHNANAYHHWGQGTQVTVEP V domain 2: QVQLVESGGGLVQAGGSLKLSCAASGGTFSSYAMGWFRQAPGKEREFVAVIMRSGDTTAYVDSVKGRFTVSRDNAKNTVYLQMNSLKPEDAAVYFCAAGRPVTRTYYHTYTYPHDYDYWGQGTQVTVEP
2. DGL499 (bispecific antibody, V domains shown) V domain 1: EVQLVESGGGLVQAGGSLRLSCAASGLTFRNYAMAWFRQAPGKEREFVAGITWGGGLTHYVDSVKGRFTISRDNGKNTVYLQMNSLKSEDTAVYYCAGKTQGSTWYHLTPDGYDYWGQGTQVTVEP V domain 2: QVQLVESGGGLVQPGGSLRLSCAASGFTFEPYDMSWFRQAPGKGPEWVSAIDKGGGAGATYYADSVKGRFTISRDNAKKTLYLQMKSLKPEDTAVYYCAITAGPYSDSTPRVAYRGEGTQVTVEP
3. DGL514 (bispecific antibody, V domains shown, 97B1 x 67B2) V domain 1: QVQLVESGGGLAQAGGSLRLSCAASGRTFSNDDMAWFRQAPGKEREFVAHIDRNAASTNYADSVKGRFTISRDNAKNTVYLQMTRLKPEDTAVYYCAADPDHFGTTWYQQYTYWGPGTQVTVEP V domain 2: QVQLVESGGGLVQPGGSLRLSCAASGFTFSNYAMSWIRQGPERGFEWVSRINSGGGTTSYADSVKGRFTISRDNAKNTLYLQMNSLKPEDTAVYYCAKHSHPDYSSNYYRPGQGTQVTVEP
4. DGL585 (bispecific antibody, V domains shown) V domain 1: QVQLVESGGGLVQAGGSLRLSCAASGRTFSSYVMGWFRQAPGQEREFVAAIMRNGIMTYYADSVKGRFTISRDNAKNTVYLQMNTLKPDDTAVYYCAAASRVGVSISQSSSYTSWGQGTQVTVEP V domain 2: QVQLVESGGGLVRPGGSLRLSCAASGFTFSSNGMHWFRQAPGKGLEWVSSIGSGGTSIYYADSVKGRFTISRDNAKNTLYLQMNSLKSDDTAVYYCSKEVTGATRGQGTQVTVEP

Output:
1. 7e-09 M (implied)
2. 8.1e-09 M (implied)
3. 3.5e-11 M (implied)
4. 3.2e-09 M (implied)

Task: Return value of EC50 for input DGL575 (bispecific antibody, V domains shown) V domain 1: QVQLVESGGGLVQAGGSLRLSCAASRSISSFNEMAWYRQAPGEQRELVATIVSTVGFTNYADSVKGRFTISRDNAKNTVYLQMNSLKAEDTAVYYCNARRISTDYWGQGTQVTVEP V domain 2: QVQLQESGPGLVKPSQTLSLTCTVSGGSITTNYYYWSWIRQPPGKGLEWMGAIAYSGSTYYSPSLKSRTSISRDTSKNQFTLQLSSVTPEDTAVYYCASGINFYSNYPTLNEYDYWGQGTQVTVEP , no commentary.
Output: > 100 nM

The reported measurements were obtained from patent US20250019450A1.
